The measurements presented in this section are drawn from ChEMBL document CHEMBL1649552.

tested on: Streptococcus pneumoniae; experiment: Antibacterial activity against Streptococcus pneumoniae by CLSI M100-S17 method; type: functional
reported.endpoint: MIC90 (µg/mL)
Provide only the numeric value, understood in µg/mL.

For this molecule ( CN[C@H](CC(C)C)C(=O)N[C@H]1C(=O)N[C@@H](CC(N)=O)C(=O)N[C@H]2C(=O)N[C@H]3C(=O)N[C@H](C(=O)N[C@H](C(=O)O)c4cc(O)cc(O)c4-c4cc3ccc4O)[C@H](O)c3ccc(c(Cl)c3)Oc3cc2cc(c3O[C@@H]2O[C@H](CO)[C@@H](O)[C@H](O)[C@H]2O[C@H]2C[C@](C)(N)[C@H](O)[C@H](C)O2)Oc2ccc(cc2Cl)[C@H]1O [VANCOMYCIN] ), measured MIC90 is 0.25

For this molecule ( CC(=O)NC[C@H]1CN(c2ccc(N3CCOCC3)c(F)c2)C(=O)O1 [LINEZOLID] ), measured MIC90 is 1

---

system: Streptococcus pneumoniae; experiment: Antibacterial activity against Streptococcus pneumoniae by CLSI M100-S17 method; format: functional
reported.endpoint: MIC90 (µg/mL)
Provide only the numeric value, understood in µg/mL.

Response field MIC90 (Streptococcus pneumoniae) for item CC1(C)S[C@@H]2[C@H](NC(=O)Cc3ccccc3)C(=O)N2[C@H]1C(=O)O [PENICILLIN G] : 0.25

Response field MIC90 (Streptococcus pneumoniae) for item CO/N=C(\C(=O)N[C@@H]1C(=O)N2C(C(=O)O)=C(CSc3nc(=O)c(O)nn3C)CS[C@H]12)c1csc(N)n1 [CEFTRIAXONE] : 0.12

Response field MIC90 (Streptococcus pneumoniae) for item C[C@H]1COc2c(N3CCN(C)CC3)c(F)cc3c(=O)c(C(=O)O)cn1c23.C[C@H]1COc2c(N3CCN(C)CC3)c(F)cc3c(=O)c(C(=O)O)cn1c23.O [LEVOFLOXACIN] : 1
